Target: Recombinant human integrin ανβ6 (Homo sapiens, UniProt P06756+P18564)
Sequence (P06756 31-992 limits assumed): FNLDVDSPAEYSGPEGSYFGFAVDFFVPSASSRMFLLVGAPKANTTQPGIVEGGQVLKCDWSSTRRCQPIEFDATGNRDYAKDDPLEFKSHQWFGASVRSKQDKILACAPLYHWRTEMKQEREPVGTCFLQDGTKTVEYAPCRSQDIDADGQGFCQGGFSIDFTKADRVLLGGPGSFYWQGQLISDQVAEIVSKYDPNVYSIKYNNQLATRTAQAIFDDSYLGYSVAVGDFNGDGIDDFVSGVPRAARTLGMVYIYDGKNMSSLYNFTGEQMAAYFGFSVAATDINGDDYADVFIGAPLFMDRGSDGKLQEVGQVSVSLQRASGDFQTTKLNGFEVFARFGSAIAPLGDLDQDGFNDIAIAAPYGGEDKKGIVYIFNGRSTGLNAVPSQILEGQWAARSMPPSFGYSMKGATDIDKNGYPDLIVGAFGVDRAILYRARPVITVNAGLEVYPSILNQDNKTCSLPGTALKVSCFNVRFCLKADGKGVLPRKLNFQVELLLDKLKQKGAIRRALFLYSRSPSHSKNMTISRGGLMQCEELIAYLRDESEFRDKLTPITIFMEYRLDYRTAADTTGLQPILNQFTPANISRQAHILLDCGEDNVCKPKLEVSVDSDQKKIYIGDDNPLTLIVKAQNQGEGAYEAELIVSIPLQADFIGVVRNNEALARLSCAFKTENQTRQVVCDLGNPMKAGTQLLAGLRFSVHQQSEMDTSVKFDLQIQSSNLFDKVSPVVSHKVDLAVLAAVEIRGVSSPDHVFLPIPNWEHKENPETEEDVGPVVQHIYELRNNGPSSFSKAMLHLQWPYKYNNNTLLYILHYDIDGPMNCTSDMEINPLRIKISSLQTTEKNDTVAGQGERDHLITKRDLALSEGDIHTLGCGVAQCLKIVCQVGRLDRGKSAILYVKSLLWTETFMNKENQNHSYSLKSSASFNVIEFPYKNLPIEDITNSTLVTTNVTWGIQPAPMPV
Sequence (P18564 22-707 limits assumed): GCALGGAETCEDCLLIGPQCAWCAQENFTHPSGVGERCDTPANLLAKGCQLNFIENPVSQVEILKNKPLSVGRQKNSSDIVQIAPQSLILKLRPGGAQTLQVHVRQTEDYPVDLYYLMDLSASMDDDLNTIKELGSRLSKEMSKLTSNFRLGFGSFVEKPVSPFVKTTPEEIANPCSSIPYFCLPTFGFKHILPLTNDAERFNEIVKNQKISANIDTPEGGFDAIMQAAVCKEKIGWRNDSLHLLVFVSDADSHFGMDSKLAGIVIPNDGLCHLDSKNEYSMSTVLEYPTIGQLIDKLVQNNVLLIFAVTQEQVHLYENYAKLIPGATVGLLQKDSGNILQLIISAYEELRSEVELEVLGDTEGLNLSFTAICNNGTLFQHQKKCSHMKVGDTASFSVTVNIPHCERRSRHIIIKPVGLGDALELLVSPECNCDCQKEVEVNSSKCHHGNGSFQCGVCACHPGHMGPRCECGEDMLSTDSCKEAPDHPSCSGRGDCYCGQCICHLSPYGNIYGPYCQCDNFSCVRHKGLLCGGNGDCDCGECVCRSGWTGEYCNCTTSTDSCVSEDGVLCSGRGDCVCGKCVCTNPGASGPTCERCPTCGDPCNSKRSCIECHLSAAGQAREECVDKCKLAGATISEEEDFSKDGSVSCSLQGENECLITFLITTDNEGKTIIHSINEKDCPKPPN
Assay: Solid Phase Receptor Assay (SPRA) for ανβ6 function
Settings: plate-bound human LAP; read-out: αvβ6 SPRA IC50
pIC50: −log10 of the molar value. Where a name gives a salt, the structure may show the parent alone.
A collection of molecules and their measured pIC50
measurement name: pIC50

> print(dat)
                                    molecule  measurement.name  number
 1  Cn1nc(CC(CC(=O)O)c2cc(Br)cc(C(F)(F)F)c2)cc1OCCc1ccc2c(n1)NCCC2 (stereo not drawn) [Example 10]             pIC50    7.60
 2  Cn1nc(CC(CC(=O)O)c2cccc(C#N)c2)cc1OCCc1ccc2c(n1)NCCC2 (stereo not drawn) [Example 9]             pIC50    7.92
 3  COc1ccc(C#N)cc1C(CC(=O)O)Cc1cc(OCCc2ccc3c(n2)NCCC3)n(C)n1 (stereo not drawn) [Example 46, Trifluoroacetate]             pIC50    7.52
 4  Cn1nc(CC(CC(=O)O)c2cc(OC(F)(F)F)cc(C(C)(C)C)c2)cc1OCCc1ccc2c(n1)NCCC2 (stereo not drawn) [Example 36]             pIC50    6.92
 5  Cn1nc(CC(CC(=O)O)c2cc(F)cc(C3(C(F)F)CC3)c2)cc1OCCc1ccc2c(n1)NCCC2 (stereo not drawn) [Example 21]             pIC50    7.33
 6  Cn1nc(CC(CC(=O)O)c2cccc(Br)c2)cc1OCCc1ccc2c(n1)NCCC2 (stereo not drawn) [Example 6]             pIC50    8.10
 7  Cn1nc(CC(CC(=O)O)c2cc(C(F)(F)F)cc(C(C)(C)C(F)(F)F)c2)cc1OCCc1ccc2c(n1)NCCC2 (stereo not drawn) [Example 25]             pIC50    7.60
 8  Cc1ccc(C(C)(C)C)cc1C(CC(=O)O)Cc1cc(OCCc2ccc3c(n2)NCCC3)n(C)n1 (stereo not drawn) [Example 44, Trifluoroacetate]             pIC50    5.15
 9  Cn1nc(CC(CC(=O)O)c2cc(Br)cc(C(C)(C)C)c2)cc1OCCc1ccc2c(n1)NCCC2 (stereo not drawn) [Example 16]             pIC50    7.10
10  COc1ccc(Br)cc1C(CC(=O)O)Cc1cc(OCCc2ccc3c(n2)NCCC3)n(C)n1 (stereo not drawn) [Example 14, trifluoroacetate]             pIC50    7.66
11  Cn1nc(CC(CC(=O)O)c2cc(C#N)cc(C(C)(C)C)c2)cc1OCCc1ccc2c(n1)NCCC2 (stereo not drawn) [Example 17]             pIC50    7.55
12  Cn1nc(CC(CC(=O)O)c2cc(F)cc(C(C)(C)C(F)(F)F)c2)cc1OCCc1ccc2c(n1)NCCC2 (stereo not drawn) [Example 24]             pIC50    6.96
13  Cn1nc(CC(CC(=O)O)c2cc(Br)cc(OC(F)(F)F)c2)cc1OCCc1ccc2c(n1)NCCC2 (stereo not drawn) [Example 11]             pIC50    7.22
14  Cn1nc(CC(CC(=O)O)c2cc(F)cc(C(C)(C)C)c2)cc1OCCc1ccc2c(n1)NCCC2 (stereo not drawn) [Example 38]             pIC50    6.96
15  COCC1(c2cc(C(CC(=O)O)Cc3cc(OCCc4ccc5c(n4)NCCC5)n(C)n3)cc(C(F)(F)F)c2)CCOCC1 (stereo not drawn) [Example 31]             pIC50    7.20

Values from patent US11306084B2
